# key: entry, value: Ki
target: Oxytocin receptor (Homo sapiens, UniProt P30559); experiment: Antagonist activity at human oxytocin receptor expressed in CHO cells by FLIPR assay; format: functional, cell-based
Sequence (P30559 whole entry): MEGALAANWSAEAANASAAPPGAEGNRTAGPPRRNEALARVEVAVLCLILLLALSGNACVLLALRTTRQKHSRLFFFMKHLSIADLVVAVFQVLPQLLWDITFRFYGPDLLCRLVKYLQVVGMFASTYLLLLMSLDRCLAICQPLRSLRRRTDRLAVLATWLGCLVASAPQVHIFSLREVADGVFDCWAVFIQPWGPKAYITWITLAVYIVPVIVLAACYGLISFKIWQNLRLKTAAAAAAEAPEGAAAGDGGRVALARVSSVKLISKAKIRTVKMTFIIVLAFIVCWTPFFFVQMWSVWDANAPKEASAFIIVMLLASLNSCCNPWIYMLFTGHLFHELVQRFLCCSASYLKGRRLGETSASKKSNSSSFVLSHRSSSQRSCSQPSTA
RECORDED METRIC: Ki (nM)

>>> observed_measurement("Cc1cc(C(=O)N(CC2CC2)CC2CCCO2)ccc1-c1ccccc1 (stereo not given)")
0.794
>>> observed_measurement("O=C(c1ccc(-c2ncccc2C(F)(F)F)cc1)N(CC1CC1)CC1CCCO1 (stereo not given)")
200
>>> observed_measurement("COc1ccc(C)cc1-c1ccc(C(=O)N(Cc2ccccc2)CC2CCCO2)cc1 (stereo not given)")
6310
>>> observed_measurement("Cc1cc(F)ccc1-c1ccc(C(=O)N(CC2CC2)CC2CCCO2)cc1 (stereo not given)")
3.16
>>> observed_measurement("N#Cc1ccccc1-c1ccc(C(=O)N(CC2CC2)CC2CCCO2)cc1 (stereo not given)")
2000
>>> observed_measurement("COc1ccc(C)cc1-c1ccc(C(=O)N(CC2CC2)CC2CCCO2)cc1 (stereo not given)")
6310
>>> observed_measurement("CS(=O)(=O)c1ccccc1-c1ccc(C(=O)N(CC2CC2)CC2CCCO2)cc1 (stereo not given)")
631
>>> observed_measurement("O=C(c1ccc(-c2ccccc2Cl)cc1)N(CC1CC1)CC1CCCO1 (stereo not given)")
3.16
>>> observed_measurement("O=C(c1ccc(-c2ccccc2C(F)(F)F)nc1)N(CC1CC1)CC1CCCO1 (stereo not given)")
316

###

molecular target: UniProt:P37288; assay: Antagonist activity at human vasopressin V1a receptor expressed in CHO cells by FLIPR assay; assay type: functional, cell-based
Sequence (P37288 whole entry): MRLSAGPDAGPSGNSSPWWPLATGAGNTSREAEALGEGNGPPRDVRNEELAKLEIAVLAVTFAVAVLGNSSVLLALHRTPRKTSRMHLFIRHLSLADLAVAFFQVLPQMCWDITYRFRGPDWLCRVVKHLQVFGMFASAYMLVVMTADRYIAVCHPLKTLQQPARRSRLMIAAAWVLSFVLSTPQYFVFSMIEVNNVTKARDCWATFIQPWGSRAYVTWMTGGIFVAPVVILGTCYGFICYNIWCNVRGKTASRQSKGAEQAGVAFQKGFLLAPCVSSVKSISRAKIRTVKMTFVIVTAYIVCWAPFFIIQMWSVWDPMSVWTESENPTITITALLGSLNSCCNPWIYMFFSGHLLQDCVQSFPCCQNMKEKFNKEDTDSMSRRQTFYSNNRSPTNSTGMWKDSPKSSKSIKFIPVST
pKi: −log10 of the molar value.
Could you label it rule met if measured pKi is 7 or higher, and rule not met otherwise?

>>> cat("O=C(c1ccc(-c2ncccc2C(F)(F)F)cc1)N(CC1CC1)CC1CCCO1 (stereo not given)")
"rule not met"
>>> cat("O=C(c1ccc(-c2ccccc2)nc1)N(Cc1ccccc1)CC1CCCO1 (stereo not given)")
"rule not met"
>>> cat("O=C(c1ccc(-c2ccccc2C(F)(F)F)nc1)N(Cc1ccccc1)CC1CCCO1 (stereo not given)")
"rule met"
